# Assayed system: T1, hTop1mt-Y559F (catalytically inactive) (Homo sapiens, UniProt Q969P6 51-601, Y559F)
# T1 sequence: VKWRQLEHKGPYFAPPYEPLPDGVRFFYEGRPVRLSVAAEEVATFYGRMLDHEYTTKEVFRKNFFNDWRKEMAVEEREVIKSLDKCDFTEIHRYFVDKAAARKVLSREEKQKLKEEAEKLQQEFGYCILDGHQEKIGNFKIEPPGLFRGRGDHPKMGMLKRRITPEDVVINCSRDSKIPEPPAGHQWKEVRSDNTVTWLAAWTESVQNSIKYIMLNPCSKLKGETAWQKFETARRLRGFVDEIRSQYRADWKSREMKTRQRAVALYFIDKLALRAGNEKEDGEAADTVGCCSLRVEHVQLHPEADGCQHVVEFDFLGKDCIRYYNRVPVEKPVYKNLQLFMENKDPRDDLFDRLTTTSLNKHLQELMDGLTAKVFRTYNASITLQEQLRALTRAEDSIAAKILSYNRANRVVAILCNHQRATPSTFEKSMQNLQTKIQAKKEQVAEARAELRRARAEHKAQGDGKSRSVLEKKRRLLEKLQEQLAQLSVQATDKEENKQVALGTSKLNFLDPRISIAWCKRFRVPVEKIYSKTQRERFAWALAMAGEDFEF
# Assay notes: fluorescence anisotropy; 20 mM Tris pH 8, 66 mM NaCl, 1 mM DTT, 10% glycerol, 25 C, 10 min; 0.5 nM dsDNA, 0-60 nM Top1
# Condition set: protein: recombinant; tags: GST removed by 3C protease; label: 5'-FAM top strand; blunt
Readout name: pKd
Scale explanation: pKd corresponds to minus log10 of a concentration expressed in moles per litre.

Q: pKd for Substrate D (dsDNA, single ribonucleotide rG at position 16 of top strand (2 nt upstream of cleavage site), rest DNA) DNA 1: ACTCGTCACGAGAGAGATGCCACGGTATTTCAAA DNA 2: TTTGAAATACCGTGGCATCTCTCTCGTGACGAGT ?
Ans: 8.64

Q: Here is the next binder: Substrate A (dsDNA) DNA 1: AGCGTTGAAGATATGTGGCAAAACCTTTGT DNA 2: ACAAAGGTTTTGCCACATATCTTCAACGCT
Ans: 8.46

Q: Another: Substrate C (dsDNA) DNA 1: ACTCGTCACGAGAGAGATGCCACGGTATTTCAAA DNA 2: TTTGAAATACCGTGGCATCTCTCTCGTGACGAGT
Ans: 8.34
